# target_of_assay: IRAK4 (Homo sapiens, UniProt Q9NWZ3)
# Construct: endogenous in cells; host or cells: OCI-LY10
# Sequence (Q9NWZ3 1-460): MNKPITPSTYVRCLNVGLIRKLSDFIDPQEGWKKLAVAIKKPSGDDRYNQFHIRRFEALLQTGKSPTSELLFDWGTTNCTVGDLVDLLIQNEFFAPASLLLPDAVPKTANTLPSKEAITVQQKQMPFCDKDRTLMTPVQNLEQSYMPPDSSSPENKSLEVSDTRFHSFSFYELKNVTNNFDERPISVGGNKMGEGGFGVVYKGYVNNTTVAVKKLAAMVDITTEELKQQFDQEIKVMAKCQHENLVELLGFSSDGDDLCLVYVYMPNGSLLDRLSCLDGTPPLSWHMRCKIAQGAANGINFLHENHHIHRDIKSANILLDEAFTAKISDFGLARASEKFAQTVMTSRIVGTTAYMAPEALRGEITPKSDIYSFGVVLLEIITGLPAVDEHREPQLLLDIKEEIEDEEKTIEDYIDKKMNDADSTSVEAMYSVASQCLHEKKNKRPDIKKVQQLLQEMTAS
# measurement_protocol: IRAK4 MSD Degradation in OCI-LY10
# Type: cell-based
# condition_context: OCI-LY10 cells, 24 hrs incubation; read-out: IRAK4 degradation in OCI-LY10 at 24 hrs: DC50
Kindly state DC50 for each of the entries shown.

Which DC50 reading was recorded for the compound CC(C)(O)c1cc2nc([C@H]3CC[C@H](N4CC5(CC(CCNc6cccc7c6C(=O)N(C6CCC(=O)NC6=O)C7=O)C5)C4)CC3)sc2cc1NC(=O)c1cccc(C(F)(F)F)n1 (single isomer, unassigned) ?
< 50 nM

Same lookup for COc1cc2nc([C@H]3CC[C@H](CN(C)[C@H]4CC[C@]5(CC4)C[C@@H](CNc4cccc6c4C(=O)N(C4CCC(=O)NC4=O)C6=O)C5)CC3)sc2cc1NC(=O)c1cccc(C(F)(F)F)n1 (stereo partly drawn) , please.
100 to 500 nM

Same lookup for CN(C[C@H]1CC[C@H](c2nc3cc(C(C)(C)O)c(NC(=O)c4cccc(C(F)(F)F)n4)cc3s2)CC1)[C@H]1CC[C@@H](CNc2cccc3c2C(=O)N(C2CCC(=O)NC2=O)C3=O)CC1 (stereo partly drawn) , please.
> 1000 nM
